These measurements were taken from ChEMBL document CHEMBL4130356.

# Tested on: Aspergillus fumigatus
# experiment.summary: Antimicrobial activity against Aspergillus fumigatus RCMB 02568 after 48 hrs by serial dilution method
# Format: functional
# condition.label: RCMB 02568, 48 h
Documented MIC across a set of compounds
Report the value in µg/mL with no unit label.

Sample answers from the record:
compound.string: O=C(N/N=C/c1ccc(Cl)cc1)c1c[nH]c2ccc(Cl)cc2c1=O
MIC, µg/mL: 31.2
--
compound.string: O=C(N/N=C/c1ccc(Cl)cc1Cl)c1c[nH]c2cc(Cl)ccc2c1=O
MIC, µg/mL: 3.9

Asked: MIC of O=C(N/N=C/c1ccc(F)cc1)c1c[nH]c2ccc(Cl)cc2c1=O on Aspergillus fumigatus?
Given back: 15.6

---

# Tested on: Mycobacterium tuberculosis
# experiment.summary: Antimycobacterial activity against Mycobacterium tuberculosis RCMB 010126 clinical isolate after 7 days by MABA
# Assay type: functional
# condition.label: Mycobacterium tuberculosis, RCMB 010126, 168 h
Entries are grouped by MIC into these classes: bottom: < 0.8 µg/mL; middle: ≥ 0.8 µg/mL and < 6 µg/mL; top: ≥ 6 µg/mL

Worked cases, answers included:
compound.string: COc1ccc(OC)c(/C=N/NC(=O)c2ccc(-c3ccc(Cl)cc3)nc2C)c1
group: bottom

compound.string: Cc1ccc(/C=N/NC(=O)c2ccc(-c3ccc(Cl)cc3)nc2C)cc1
group: top

Asked: Please let me know in which category the item COc1ccc(/C=N/NC(=O)c2ccc(-c3cccc(Cl)c3)nc2C)cc1 belongs.
Given back: middle

Asked: Now the molecule O=C(N/N=C/c1ccc(Cl)cc1Cl)c1c[nH]c2ccc(Cl)cc2c1=O
Given back: top

Asked: Now the molecule Cc1ccc(/C=N/NC(=O)c2ccc(-c3cccc(Cl)c3)nc2C)cc1
Given back: middle

Asked: Now the molecule COc1ccc(/C=N/NC(=O)c2c[nH]c3ccc(Cl)cc3c2=O)cc1OC
Given back: top

Asked: Now the molecule COc1cccc(/C=N/NC(=O)c2ccc(-c3ccc(Cl)cc3)nc2C)c1O
Given back: bottom

Asked: Now the molecule COc1ccc(/C=N/NC(=O)c2ccc(-c3ccc(Cl)cc3)nc2C)cc1OC
Given back: middle

Asked: Now the molecule NNC(=O)c1ccncc1
Given back: bottom

Asked: Now the molecule COc1cc(/C=N/NC(=O)c2c[nH]c3cc(Cl)ccc3c2=O)cc(OC)c1OC
Given back: top

Asked: Now the molecule Cc1nc(-c2ccc(Cl)cc2)ccc1C(=O)N/N=C/c1ccc(F)cc1
Given back: top

Asked: Now the molecule O=C(N/N=C/c1ccc(Cl)cc1)c1c[nH]c2cc(Cl)ccc2c1=O
Given back: top

Asked: Now the molecule Cc1nc(-c2ccc(Cl)cc2)ccc1C(=O)N/N=C/c1ccc(Cl)cc1
Given back: top

Asked: Now the molecule Cc1nc(-c2ccc(Cl)cc2)ccc1C(=O)N/N=C/c1ccc(O)cc1
Given back: middle

---

Documented zone of inhibition at 100 µg/mL across a set of compounds
# Tested on: Staphylococcus aureus
# experiment.summary: Antimicrobial activity against Staphylococcus aureus RCMB 010028 assessed as diameter of zone inhibition at 100 ug/ml after 24 hrs by agar well diffusion assay
# Assay type: functional
# condition.label: RCMB 010028, 24 h, read-out: DIZ
Report the value in mm with no unit label.

Sample answers from the record:
compound.string: COc1ccc(/C=N/NC(=O)c2ccc(-c3ccc(Cl)cc3)nc2C)cc1
zone of inhibition at 100 µg/mL, mm: 20.1
--
compound.string: COc1ccc(OC)c(/C=N/NC(=O)c2ccc(-c3ccc(Cl)cc3)nc2C)c1
zone of inhibition at 100 µg/mL, mm: 22.3
--
compound.string: COc1ccc(/C=N/NC(=O)c2ccc(-c3cccc(Cl)c3)nc2C)cc1OC
zone of inhibition at 100 µg/mL, mm: 17.9

Here's the next entry for you.
Asked: What value of measured zone of inhibition at 100 µg/mL is listed for Cc1nc(-c2cccc(Cl)c2)ccc1C(=O)N/N=C/c1ccc(Cl)cc1Cl ?
Given back: 11.4
